B1: library; numbered along this chain (parent)
chain: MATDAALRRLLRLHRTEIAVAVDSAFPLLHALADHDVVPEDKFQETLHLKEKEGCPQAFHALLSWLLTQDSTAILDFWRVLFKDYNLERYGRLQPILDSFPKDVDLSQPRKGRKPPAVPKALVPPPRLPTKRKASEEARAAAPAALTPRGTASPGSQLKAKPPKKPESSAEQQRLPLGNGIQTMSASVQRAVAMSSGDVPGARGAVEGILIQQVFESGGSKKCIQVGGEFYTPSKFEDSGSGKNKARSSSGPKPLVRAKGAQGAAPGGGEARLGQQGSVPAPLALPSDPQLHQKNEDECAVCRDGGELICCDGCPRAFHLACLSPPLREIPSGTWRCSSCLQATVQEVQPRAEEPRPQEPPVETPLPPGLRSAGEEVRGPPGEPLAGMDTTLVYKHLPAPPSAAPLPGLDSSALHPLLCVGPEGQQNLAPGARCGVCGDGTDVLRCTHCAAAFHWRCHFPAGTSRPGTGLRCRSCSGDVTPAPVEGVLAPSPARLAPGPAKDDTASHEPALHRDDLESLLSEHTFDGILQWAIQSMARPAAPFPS

- Variants of: B1
- method.notes: AIRE transcriptional activation functional score (insulin promoter-GFP; nonsense median 0, synonymous median 1) (normalised score); higher = higher AIRE activity (more reporter activation)
- condition.summary: with insulin promoter-GFP reporter in HEK293
measured.property: AIRE transcriptional activation functional score

E270D	1.37
A300P	1.05
A186E	0.734
A404T	1.04
R174Q	0.21

In: Tell me the measured AIRE transcriptional activation functional score of `W335Y` , please.
Out: 0.768

In: Tell me the measured AIRE transcriptional activation functional score of `A258H` , please.
Out: 1.05

In: Tell me the measured AIRE transcriptional activation functional score of `C299V` , please.
Out: 0.501

In: Tell me the measured AIRE transcriptional activation functional score of `D410F` , please.
Out: 1.06

In: Tell me the measured AIRE transcriptional activation functional score of `D478M` , please.
Out: 0.485

In: Tell me the measured AIRE transcriptional activation functional score of `P544V` , please.
Out: 0.842

In: Tell me the measured AIRE transcriptional activation functional score of `A403T` , please.
Out: 1.14

In: Tell me the measured AIRE transcriptional activation functional score of `R247D` , please.
Out: 0.268

In: Tell me the measured AIRE transcriptional activation functional score of `L285V` , please.
Out: 0.989

In: Tell me the measured AIRE transcriptional activation functional score of `A489M` , please.
Out: 1.23

In: Tell me the measured AIRE transcriptional activation functional score of `S278Y` , please.
Out: 1.29

In: Tell me the measured AIRE transcriptional activation functional score of `R132M` , please.
Out: 0.275

In: Tell me the measured AIRE transcriptional activation functional score of `E354Y` , please.
Out: 1.38

In: Tell me the measured AIRE transcriptional activation functional score of `V104G` , please.
Out: -0.0739
